target: Deoxyribonuclease-2-alpha (Sus scrofa)
Sequence (O62855 whole entry): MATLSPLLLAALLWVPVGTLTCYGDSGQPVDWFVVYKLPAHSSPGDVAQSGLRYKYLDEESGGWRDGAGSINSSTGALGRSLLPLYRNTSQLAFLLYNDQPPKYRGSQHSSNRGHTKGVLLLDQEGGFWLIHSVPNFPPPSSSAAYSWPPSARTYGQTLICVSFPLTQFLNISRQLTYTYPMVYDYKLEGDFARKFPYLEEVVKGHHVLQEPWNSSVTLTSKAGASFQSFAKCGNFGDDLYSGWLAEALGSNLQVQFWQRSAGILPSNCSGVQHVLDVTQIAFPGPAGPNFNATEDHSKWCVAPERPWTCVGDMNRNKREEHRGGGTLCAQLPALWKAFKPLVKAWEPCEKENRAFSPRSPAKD
Entries and their IC50
Measure Name: IC50

>  <Molecule>
COc1cccc2c1C(=O)c1c(O)c3c(c(O)c1C2=O)C[C@@](O)(C(=O)CO)C[C@@H]3O[C@H]1C[C@H](N)[C@H](O)[C@H](C)O1 [DOXORUBICIN]

>  <Measured Target>
Deoxyribonuclease-2-alpha (Sus scrofa)

>  <Measure Name>
IC50

>  <Result>
> 200 µM

$$$$
>  <Molecule>
O=C1Oc2cc(O)ccc2/C1=C\c1ccc(O)cc1 [ISOAUROSTATIN]

>  <Measured Target>
Deoxyribonuclease-2-alpha (Sus scrofa)

>  <Measure Name>
IC50

>  <Result>
> 400 µM

$$$$
>  <Molecule>
CC[C@@]1(O)C(=O)OCc2c1cc1n(c2=O)Cc2cc3ccccc3nc2-1 [CAMPTOTHECIN]

>  <Measured Target>
Deoxyribonuclease-2-alpha (Sus scrofa)

>  <Measure Name>
IC50

>  <Result>
> 300 µM

$$$$
